assay: Selectivity of mouse CB2 receptor over rat CB1 receptor
test-readout: Ratio Ki

# smiles-structure, test-readout, number
records = [
    ("CCCCCCC(C)(C)c1cc(O)c2c(c1)OC(C)(C)c1ccc(OC)cc1-2", "Ratio Ki", 0.92),
    ("CCCCCCC(C)(C)c1cc(O)c2c(c1)OC(C)(C)c1ccc(O)cc1-2", "Ratio Ki", 0.54),
    ("CCCCCCC(C)(C)c1cc(O)c2c(c1)OC(C)(C)c1ccc(C)cc1-2", "Ratio Ki", 0.86),
    ("CCCCCCC(C)(C)c1cc(O)c2c(c1)oc(=O)c1ccc(OC)cc12", "Ratio Ki", 54),
    ("CCCCCCC(C)(C)c1cc(O)c2c(c1)oc(=O)c1ccc(O)cc12", "Ratio Ki", 490),
]
